- Tested on: P388
- assay.remarks: Antitumor activity against mouse P388 cells allografted in female CDF1 mouse assessed as change in body weight at 50 mg/kg, ip administered daily for 9 days as Klucel suspension starting 24 hrs after tumor inoculation
- Type: functional
- settings: route intraperitoneal
parameter.measured: Activity (g)

>>> value_observed("CC(=O)OCc1c(COC(C)=O)c(-c2ccc(Cl)c(Cl)c2)n2c1CCC2")
-0.7
>>> value_observed("CC(=O)OCc1c(COC(C)=O)c(C(F)(F)F)n2c1CCC2")
2.1
>>> value_observed("CC(=O)OCc1c(COC(C)=O)c(-c2ccc(Cl)cc2)n2c1CCC2")
-1.9
>>> value_observed("CC(=O)OCc1c(COC(C)=O)c(-c2ccccc2)n2c1CCC2")
-2.5
>>> value_observed("CNC(=O)OCc1c(COC(=O)NC)c(C(F)(F)F)n2c1CCC2")
1.4
>>> value_observed("CNC(=O)OCc1c(COC(=O)NC)c(-c2ccc(Cl)cc2)n2c1CCC2")
-2.5
>>> value_observed("CNC(=O)OCc1c(COC(=O)NC)c(-c2ccc(OC)cc2)n2c1CCC2")
-4
>>> value_observed("CNC(=O)OCc1c(COC(=O)NC)c(-c2ccccc2)n2c1CCC2")
-2.1
>>> value_observed("OCc1c(CO)c(C(F)(F)F)n2c1CCC2")
2.1

###

- Test system: Mus musculus
- assay.remarks: Toxicity in female BDF1 mouse allografted with mouse L1210 cells assessed as animal survival at 200 mg/kg, ip administered daily for 9 days as Klucel suspension starting 24 hrs after tumor inoculation measured on fifth day
- Assay type: organism-based
- Parameters: dose 200 mg/kg, route intraperitoneal
- settings: in vivo
parameter.measured: Activity

>>> value_observed("CNC(=O)OCc1c(COC(=O)NC)c(-c2ccc(Cl)cc2)n2c1CCC2")
"Toxic"
>>> value_observed("CC(=O)OCc1c(COC(C)=O)c(C(F)(F)F)n2c1CCC2")
"Non-toxic"
>>> value_observed("CNC(=O)OCc1c(COC(=O)NC)c(C(F)(F)F)n2c1CCC2")
"Non-toxic"
>>> value_observed("CC(=O)OCc1c(COC(C)=O)c(-c2ccccc2)n2c1CCC2")
"Toxic"
>>> value_observed("COC(=O)c1c(C(=O)OC)c(-c2ccc(Cl)c(Cl)c2)n2c1CCC2")
"Non-toxic"
>>> value_observed("CC(=O)OCc1c(COC(C)=O)c(-c2ccc(Cl)c(Cl)c2)n2c1CCC2")
"Non-toxic"
>>> value_observed("CNC(=O)OCc1c(COC(=O)NC)c(-c2ccccc2)n2c1CCC2")
"Non-toxic"
>>> value_observed("CNC(=O)OCc1c(COC(=O)NC)c(-c2ccc(OC)cc2)n2c1CCC2")
"Non-toxic"
>>> value_observed("OCc1c(CO)c(C(F)(F)F)n2c1CCC2")
"Toxic"

###

- Tested on: P388
- assay.remarks: Antitumor activity against mouse P388 cells allografted in female BDF1 mouse assessed as disease cures by measuring 30-days host survival at 25 mg/kg, ip administered daily for 9 days as Klucel suspension starting 24 hrs after tumor inoculation relative to control
- Type: functional
- settings: route intraperitoneal
parameter.measured: T/C (%)

>>> value_observed("CNC(=O)OCc1c(COC(=O)NC)c(-c2ccc(Cl)cc2)n2c1CCC2")
135
>>> value_observed("CC(=O)OCc1c(COC(C)=O)c(-c2ccc(Cl)cc2)n2c1CCC2")
123
>>> value_observed("CC(=O)OCc1c(COC(C)=O)c(-c2ccc(Cl)c(Cl)c2)n2c1CCC2")
125
>>> value_observed("CC(=O)OCc1c(COC(C)=O)c(-c2ccccc2)n2c1CCC2")
133

###

The reader will find reported Activity values listed item by item below.
- Tested on: P388
- assay.remarks: Antitumor activity against mouse P388 cells allografted in female BDF1 mouse assessed as change in body weight at 12.5 mg/kg, ip administered daily for 9 days as Klucel suspension starting 24 hrs after tumor inoculation
- Assay type: functional
- settings: route intraperitoneal
parameter.measured: Activity (g)

>>> value_observed("CC(=O)OCc1c(COC(C)=O)c(-c2ccc(Cl)cc2)n2c1CCC2")
-0.6
>>> value_observed("CC(=O)OCc1c(COC(C)=O)c(-c2ccc(Cl)c(Cl)c2)n2c1CCC2")
1.2
>>> value_observed("CNC(=O)OCc1c(COC(=O)NC)c(-c2ccc(Cl)cc2)n2c1CCC2")
-0.2
>>> value_observed("CC(=O)OCc1c(COC(C)=O)c(-c2ccccc2)n2c1CCC2")
-1.2

###

- Test system: L1210
- assay.remarks: Antileukemic activity against mouse L1210 cells allografted in female BDF1 mouse assessed as host mean survival time at 100 mg/kg, ip administered daily for 9 days as Klucel suspension starting 24 hrs after tumor inoculation relative to control
- Format: functional
- settings: route intraperitoneal
parameter.measured: T/C (%)

>>> value_observed("CC(=O)OCc1c(COC(C)=O)c(-c2ccccc2)n2c1CCC2")
107
>>> value_observed("OCc1c(CO)c(C(F)(F)F)n2c1CCC2")
104
>>> value_observed("CNC(=O)OCc1c(COC(=O)NC)c(C(F)(F)F)n2c1CCC2")
100
>>> value_observed("CNC(=O)OCc1c(COC(=O)NC)c(-c2ccc(OC)cc2)n2c1CCC2")
117
>>> value_observed("COC(=O)c1c(C(=O)OC)c(-c2ccc(Cl)c(Cl)c2)n2c1CCC2")
88
>>> value_observed("CNC(=O)OCc1c(COC(=O)NC)c(-c2ccc(Cl)cc2)n2c1CCC2")
107
>>> value_observed("CC(=O)OCc1c(COC(C)=O)c(-c2ccc(Cl)c(Cl)c2)n2c1CCC2")
104
>>> value_observed("CC(=O)OCc1c(COC(C)=O)c(C(F)(F)F)n2c1CCC2")
100
>>> value_observed("CNC(=O)OCc1c(COC(=O)NC)c(-c2ccccc2)n2c1CCC2")
104
>>> value_observed("CC(=O)OCc1c(COC(C)=O)c(-c2ccc(Cl)cc2)n2c1CCC2")
76

###

- System: P388
- assay.remarks: Antitumor activity against mouse P388 cells allografted in female CDF1 mouse assessed as change in body weight at 100 mg/kg, ip administered daily for 9 days as Klucel suspension starting 24 hrs after tumor inoculation
- Assay type: functional
- settings: route intraperitoneal
parameter.measured: Activity (g)

>>> value_observed("CNC(=O)OCc1c(COC(=O)NC)c(-c2ccc(Cl)cc2)n2c1CCC2")
-0.9
>>> value_observed("CNC(=O)OCc1c(COC(=O)NC)c(C(F)(F)F)n2c1CCC2")
-0.4
>>> value_observed("CC(=O)OCc1c(COC(C)=O)c(-c2ccc(Cl)c(Cl)c2)n2c1CCC2")
-1

###

- Test system: P388
- assay.remarks: Antitumor activity against mouse P388 cells allografted in female CDF1 mouse assessed as change in body weight at 100 mg/kg, ip administered daily for 9 days as Klucel suspension starting 24 hrs after tumor inoculation
- Assay type: functional
- settings: route intraperitoneal
Assign class by Activity: not lower than -2 g means rule met; lower than -2 g means rule not met.

>>> assigned_category("CC(=O)OCc1c(COC(C)=O)c(-c2ccc(Cl)cc2)n2c1CCC2")
"rule not met"
>>> assigned_category("OCc1c(CO)c(C(F)(F)F)n2c1CCC2")
"rule met"
>>> assigned_category("CNC(=O)OCc1c(COC(=O)NC)c(-c2ccc(OC)cc2)n2c1CCC2")
"rule not met"
>>> assigned_category("CC(=O)OCc1c(COC(C)=O)c(-c2ccccc2)n2c1CCC2")
"rule not met"
>>> assigned_category("CC(=O)OCc1c(COC(C)=O)c(C(F)(F)F)n2c1CCC2")
"rule met"
>>> assigned_category("CNC(=O)OCc1c(COC(=O)NC)c(-c2ccccc2)n2c1CCC2")
"rule met"

###

- System: P388
- assay.remarks: Antitumor activity against mouse P388 cells allografted in female CDF1 mouse assessed as change in body weight at 200 mg/kg, ip administered daily for 9 days as saline with Tween-80 solution starting 24 hrs after tumor inoculation
- Type: functional
- settings: route intraperitoneal
Some compounds, each annotated with its measured Activity.
parameter.measured: Activity

>>> value_observed("CCNC(=O)OCc1c(COC(=O)NCC)c(-c2ccc(Cl)c(Cl)c2)n2c1CCC2")
"-1.4 g"
>>> value_observed("CCCCNC(=O)OCc1c(COC(=O)NCCCC)c(-c2ccc(Cl)c(Cl)c2)n2c1CCC2")
"-3.2 g"
>>> value_observed("OCc1c(CO)c(-c2ccc(Cl)c(Cl)c2)n2c1CCC2")
"-0.9 g"
>>> value_observed("COC(=O)c1c(C(=O)OC)c(-c2ccc(Cl)c(Cl)c2)n2c1CCC2")
"0.2 g"

###

- Test system: Mus musculus
- assay.remarks: Toxicity in female CDF1 mouse allografted with mouse P388 cells assessed as animal survival at 200 mg/kg, ip administered daily for 9 days as saline with Tween-80 solution starting 24 hrs after tumor inoculation
- Assay type: organism-based
- Set-up: dose 200 mg/kg, route intraperitoneal
- settings: in vivo
parameter.measured: Activity

>>> value_observed("COC(=O)c1c(C(=O)OC)c(-c2ccc(Cl)c(Cl)c2)n2c1CCC2")
"Non-toxic"
>>> value_observed("CCCCNC(=O)OCc1c(COC(=O)NCCCC)c(-c2ccc(Cl)c(Cl)c2)n2c1CCC2")
"Non-toxic"
>>> value_observed("CCNC(=O)OCc1c(COC(=O)NCC)c(-c2ccc(Cl)c(Cl)c2)n2c1CCC2")
"Toxic"
>>> value_observed("OCc1c(CO)c(-c2ccc(Cl)c(Cl)c2)n2c1CCC2")
"Non-toxic"
